// provenance: a melting point compilation (Tetko et al.; mined from patent text by program, amines drawn as free bases though some values may be those of a salt)

Recorded melting point by entry

COC(=O)c1ccc(OC(=O)c2ccccc2C(=O)Oc2ccc(C(=O)OC)cc2)cc1 :: 123 to 125 °C

Problem: Any idea what melting point was measured for COC(=O)c1cc2c([nH]c3ccccc32)s1 ?
Solution: 200 to 201 °C

Problem: Try the compound C=CCSCCON=C(C(=O)OCC)c1csc(NC=O)n1
Solution: 62 to 64 °C

Problem: Can you handle O=C(NC1CCCCC1)NC1(N=NC2(NC(=O)NC3CCCCC3)CCCCC2)CCCCC1 next?
Solution: 105 to 109 °C

Problem: Now consider Clc1cc(Cl)c2c(c1)CCC(N1CCCC1)=C2 and answer again.
Solution: 84.5 to 85.5 °C

Problem: Moving on to N=C(Nc1ccccc1C(F)(F)F)NC12CC3CC(CC(C3)C1)C2
Solution: 259 to 260 °C

Problem: // same read-out, input: CCOCC(N=O)C(C)(C)Cl (stereo unspecified)
Solution: 84 to 85 °C

Problem: For COc1ccc(-c2c(Cl)c(CN3C(=O)CCC3=O)nc3sc4c(c23)CC(C)(C)C(=O)C4(F)F)cc1 then?
Solution: 200 to 202 °C

Problem: Repeat with O=Cc1ccc2ccc(-c3ccccc3)nc2c1
Solution: 108 °C

Problem: Likewise for CN1C2CCC1CC(=NO)C2 ?
Solution: 140 to 142 °C

Problem: // same read-out, input: CCN1CN2C(=N1)C(c1ccccc1Cl)=NCc1ccsc12
Solution: 153 to 154 °C

###

Let's look at some compounds and their measured melting point.

Below, each entry is followed by its recorded melting point result.
COC(=O)C(C(=O)OC)c1ccccc1C(=O)O :: 119 to 120 °C
N#CCc1cc(O)c(O)c(F)c1 :: 100 to 101 °C
Nc1cc(Cl)c(Cl)cc1NCCO :: 120 °C
Nc1ccccc1C=C1c2ccccc2CCc2ccccc21 :: 145 °C
O=C(O)CCc1cc2nc(Cl)ccc2n1S(=O)(=O)c1ccc2ncsc2c1 :: 248 °C

Problem: Param item = Cc1sc(N)nc1-c1cccc2ccccc12 ; retrieve measured melting point.
Solution: 194 to 195 °C

Problem: Another compound to look at: CCCCN1C(=O)C(=O)C(C)=C(C#N)C1=O
Solution: 134 to 135 °C

Problem: CCC(O)(CC)c1ccc(-c2cccc(COc3ccc(CO)c(CO)c3)c2)c(C)c1 ?
Solution: 87 °C

###

Here the recorded melting point is given for each entry.

Problem: I have this compound here, COc1cc(-c2ccc(Cl)cc2)ccc1COCCc1cccc(NS(=O)(=O)C(F)(F)F)c1 , and I need its recorded melting point.
Solution: 66 to 68 °C

Problem: Try CCOC(=O)CCc1ccc(NC(C)=O)cc1 next.
Solution: 52 to 53 °C

Problem: Try the compound C=C(C)C(=O)Nc1cccc(O)c1
Solution: 171 to 173 °C

Problem: Repeat with CCOCCOc1ccc(-c2ccc3c(c2)C=C(C(=O)Nc2ccc(CN(C)C4CCOCC4)cc2)CCS3(=O)=O)cc1OCCOCC
Solution: 150 to 151 °C

Problem: Likewise for CCOC(=O)CSc1nc(Cl)cc(Nc2ccc(OC)cc2)n1 ?
Solution: 96 to 97.5 °C

###

melting point by entry:

O=S(=O)(c1ccccc1)n1c(Cc2cccc(-c3cc4ccccc4n3S(=O)(=O)c3ccccc3)c2)cc2ccccc21 :: 76 to 78 °C
N#Cc1ccc2[nH]c3ccc(C#N)cc3c2c1 :: 360 °C
CCNC(=O)c1c(Cl)cc(C(C)(C)C)cc1[Si](C)(C)C :: 124 to 126 °C
COc1cc(CO)ccc1OCc1nc(-c2cccc(C#N)c2)oc1C :: 113 to 115 °C
Cc1cccnc1COc1nn2c(-c3ccccc3)nnc2cc1C12CCC(CC1)C2 :: 214 to 216 °C

Problem: Which melting point value is on record for CCCCCCCCCCOc1cc(OCCCCCCCCCC)cc(C(=O)C(=O)OC)c1 ?
Solution: 49 to 50 °C

Problem: Can you handle Cc1cc2c(=O)[nH][nH]c(=O)c2n1Cc1ccccc1 next?
Solution: 322 to 324 °C

Problem: Entry Cc1nonc1-n1cc(C(=O)O)c(=O)c2cc(F)c(F)cc21 please
Solution: 238 to 241 °C

Problem: Param item: Fc1ccc(CNc2nc(OCc3ccccc3)nc(OCc3ccccc3)n2)cc1
Solution: 157 to 159 °C

Problem: What about CCCCCCCCCCCCCCCCSCC(CN)NC(=O)OC (stereo unspecified) ?
Solution: 49 to 50.5 °C

###

Readout kind: melting point

COC1(c2cnc(Sc3ccc(/C(C)=N/O)cc3)s2)CCOCC1 :: 114 to 116 °C
O=C(O)Cc1ccc2c(c1)N(C1CCN(CCc3ccc(F)cc3)CC1)CC2 :: 130 to 132 °C
Cc1nc(N2CCN(Cc3ccccc3)C2=O)sc1C(=O)NCc1ccc(F)cc1F :: 157 to 158 °C
CC(C)C(=O)NCCCCN1CCN(c2csc3cc(F)ccc23)CC1 :: 130 to 131 °C
CCOC(=O)c1cn(Cc2ccccc2)nc1OCc1ccc(OCc2nc(-c3ccco3)oc2C)cc1 :: 101 to 102 °C
O=c1[nH]c2ccc(Br)cc2c(=O)n1CCS :: 334 to 336 °C

Problem: Quick check: melting point of Cc1cc(S(=O)(=O)c2ccc([N+](=O)[O-])cc2)cc(Br)n1 ?
Solution: 154 to 156 °C

Problem: How about this compound: CCS(=O)(=O)c1ccc(Oc2ccc3c(c2)OCO3)nc1
Solution: 97 to 99 °C

Problem: Then O=C(CCl)Oc1ccccc1CCC1SCCN1C(=O)CCl (stereo not given) ?
Solution: 88 to 89 °C

###

Readout kind: melting point

Past entries and their recorded results:
CC(=O)Nc1ccc(-c2c(NC(C)=O)n(C)c3ccccc23)cc1 :: 234 to 237 °C
O=C1CCC(c2ccccc2)(c2ccccc2)[C@@H]2CN(C(=O)Cc3c[nH]c4ccccc34)C[C@H]12 (racemic) :: 250 °C
CCOC(=O)c1[nH]c(C)c(C)c1OCCCCl :: 60 to 63 °C
COc1ccc(C2(C)CCc3cc(OC)ccc3C2(O)C#CCCCCOC2CCCCO2)cc1 (stereo not given) :: 80 to 82 °C
Cc1oc(-c2ccccc2)nc1CCSc1ccc(OC(C)(C)C(=O)O)cc1 :: 104 to 106 °C

Problem: I have this compound here, CC1=NN(c2ccccc2)C(=O)C1C=O (stereo not given) , and I need its recorded melting point.
Solution: 178 to 180 °C

Problem: Could you do the same for ClCc1coc(C=C2c3ccccc3-c3ccccc32)n1 , please?
Solution: 175 to 176 °C

Problem: Item: COc1ccc2c3c([nH]c2c1)C(=O)C(CC1CCN(C(=O)OC(C)(C)C)CC1)C3 (stereo not given)
Solution: 192 to 193 °C

Problem: Also check CCC(C)C(=O)Nc1nn(C)c2c1sc1cc(N)ccc12 (stereo not given)
Solution: 196 to 197 °C

Problem: Also Cc1nc2ccc3c(c2o1)C(=O)CC3 , if possible.
Solution: 106 to 107 °C

###

Below, each entry is listed alongside its reported melting point.

Before answering, review these 4 worked examples.
CCOC(=O)CC(O)CC(O)C=CC(=C(c1ccc(F)cc1)c1ccc(F)cc1)n1nnnc1-c1ccccc1 (stereo not given) :: 160 to 162 °C
Brc1cnn2c(-c3cccnc3)ccnc12 :: 243 to 244 °C
N#Cc1ccc2c3c(cc([N+](=O)[O-])c2c1)NCC3CCl (stereo not given) :: 237 to 238 °C
O=C(NC1CCN(CCc2ccccc2)C1)C12CC3CC(CC(C3)C1)C2 (stereo not given) :: 119 to 121 °C

Kindly consider the entry below.
Problem: Look at this compound and give its reported melting point. O=C1C(=Cc2ccc(-c3cccs3)s2)CCc2cc(OCCn3ccnc3)ccc21
Solution: 180 to 181 °C

###

Readout kind: melting point

Problem: // melting point lookup, key: O=C(O)c1ccc(CCCC2SCC(=O)N2CCCC2(O)CCCCC2)cc1 (stereo unspecified)
Solution: 118 to 121 °C

Problem: Now give it for CCOCCOC(=O)C(=O)Nc1nc(-c2cc(OC)ccc2OC)cs1 too.
Solution: 140 to 141 °C

Problem: Next record, please: CC(CSC(=O)C(C)(C)C)C(=O)N1C(C(=O)O)CC2CCCCC21 (stereo unspecified)
Solution: 134 to 136 °C

Problem: Let us now turn to Fc1cccc2c1CN(NC1=NCCN1)C2
Solution: 168 to 170 °C

Problem: Do the same for CC(=O)c1ccc2c(c1)CCN(Cc1ccccc1)CC2 please
Solution: 89 to 91 °C

Problem: Record: N#Cc1cccc2c1CCCc1ccccc1-2
Solution: 109 to 111 °C

Problem: # repeat for COc1cc(OC)nc(NS(=O)(=O)c2ccccc2N(C)S(C)(=O)=O)n1
Solution: 228 to 230 °C

Problem: And for O=C(Nc1noc2ccccc12)N1CCN(c2nc(N3CCCCC3)ns2)CC1 ?
Solution: 214 to 215 °C

Problem: Entry C(=Nc1ccc(Nc2ccccc2)cc1)Nc1ccc(Nc2ccccc2)cc1 please
Solution: 173 to 175 °C

Problem: Could you do the same for CNC[C@@H]1CN(c2nc3c(cc2F)c(=O)c(C(=O)O)cn3C2CC2)C[C@@H]1F (relative stereo) , please?
Solution: 230 to 240 °C

Problem: How about this compound: COc1ccccc1C1=Nc2ccc(N3CCCC3)cc2C(=O)C1
Solution: 312 to 313 °C

Problem: Proceed to CN(C)C=Nc1c(Cl)cc(N=Cc2cccc(Br)c2)cc1Cl
Solution: 136 to 138 °C

Problem: Entry to check: CN(C)c1onc2c1c(=O)n(C)c(=O)n2C
Solution: 188 to 190 °C

Problem: What do we get for CC(C)(C(=O)O)n1c(=O)[nH]c2cccc(F)c2c1=O ?
Solution: 258 to 260 °C

Problem: What about this compound? Cc1noc(NC(=O)N2CCN(c3ccnc(-c4ccc(F)cc4F)c3)CC2)c1C
Solution: 234 to 235 °C
